The reported numbers originate from paper PMC11348465.

- measurementProtocol: Inhibition of linoleic acid peroxidation (AAPH-induced)
- Description: Our group evaluated the in vitro study as reported previously. Ten 16 mM sodium linoleate solution microliters were added to the UV cuvette containing 93 µL of a 0.05 M phosphate buffer, pH 7.4, and 10 µL of the tested compounds (final concentration 100 µM). The oxidation reaction started at 37 °C under air by adding 50 µL of the free radical initiator AAPH (40 mM). Oxidation was carried out and monitored at 234 nm. DMSO under the same conditions was used as a negative control. […]
AAPH inhibition (%, at 100 µM) values by entry
Return type: number; implicit unit %.

The cases that follow already have their AAPH inhibition (%, at 100 µM) on record.
compound	AAPH inhibition (%, at 100 µM) / %
COC(=O)CC[C@H](NC(=O)/C=C/c1ccc(O)c(OC)c1)C(=O)OC [Compound 24c]	12
COC(=O)CC[C@H](NC(=O)/C=C/c1cc(OC)ccc1OC)C(=O)OC [Compound 19c]	64
COC(=O)CCCNC(=O)/C=C/c1cccs1 [Compound 21b]	73
COC(=O)CCCNC(=O)/C=C/c1cc(OC)ccc1OC [Compound 19b]	70
CCOC(=O)CNC(=O)/C=C/c1ccc2c(c1)OC(C)(C)O2 [Compound 29a]	80
COC(=O)CCCNC(=O)/C=C/c1cccc(Br)c1 [Compound 15b]	27

Could you now look at the following compound, please?
q: Please report the measured AAPH inhibition (%, at 100 µM) for CCOC(=O)CNC(=O)/C=C/c1ccccc1 [Compound 22a]
a: 5

###

- systemUnderTest: soybean lipoxygenase (LOX-1) (Glycine max, UniProt P08170)
- Construct: purchased Sigma Chemical, Co. (St Louis, MO, USA)
- Sequence (P08170 whole entry): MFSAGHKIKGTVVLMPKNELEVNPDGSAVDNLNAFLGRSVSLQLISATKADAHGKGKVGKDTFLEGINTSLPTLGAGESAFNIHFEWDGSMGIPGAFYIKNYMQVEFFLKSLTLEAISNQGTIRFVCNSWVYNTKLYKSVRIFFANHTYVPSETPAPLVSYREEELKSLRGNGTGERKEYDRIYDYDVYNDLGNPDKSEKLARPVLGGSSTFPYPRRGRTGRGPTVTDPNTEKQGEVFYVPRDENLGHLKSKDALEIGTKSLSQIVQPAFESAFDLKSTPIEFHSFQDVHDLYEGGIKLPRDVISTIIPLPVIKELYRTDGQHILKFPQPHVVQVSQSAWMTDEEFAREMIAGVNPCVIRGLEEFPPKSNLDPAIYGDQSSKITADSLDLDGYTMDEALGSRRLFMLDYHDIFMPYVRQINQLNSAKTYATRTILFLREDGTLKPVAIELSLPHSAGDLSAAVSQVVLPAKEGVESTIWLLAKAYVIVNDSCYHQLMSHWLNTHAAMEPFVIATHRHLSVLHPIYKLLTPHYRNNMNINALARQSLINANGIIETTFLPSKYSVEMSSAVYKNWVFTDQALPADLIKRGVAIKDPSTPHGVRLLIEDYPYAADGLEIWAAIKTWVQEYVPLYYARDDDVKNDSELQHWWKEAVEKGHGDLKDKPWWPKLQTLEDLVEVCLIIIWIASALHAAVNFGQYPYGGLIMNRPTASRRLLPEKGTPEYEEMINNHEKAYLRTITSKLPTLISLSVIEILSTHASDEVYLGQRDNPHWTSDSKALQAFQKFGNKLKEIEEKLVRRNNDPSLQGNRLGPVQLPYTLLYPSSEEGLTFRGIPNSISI
- measurementProtocol: Soybean lipoxygenase inhibition study
- Type: biochemical
- conditionDescription: read-out: LOX inhibition (IC50)
measuredMetric: pIC50
Expect pIC50 as a plain number equal to -log10 of the molar concentration.

Consider the following illustrative entries.
compound	val
CCOC(=O)CNC(=O)/C=C/c1ccc(OC)c(OC)c1 [Compound 18a]	4.20
COC(=O)CC[C@H](NC(=O)/C=C/c1ccc(O)c(OC)c1)C(=O)OC [Compound 24c]	4.12
COC(=O)CC[C@H](NC(=O)/C=C/c1cccc2ccccc12)C(=O)OC [Compound 17c]	4.17

q: Answer with the recorded pIC50 for the compound listed here: COC(=O)CCCNC(=O)/C=C/c1ccc2c(c1)OCO2 [Compound 20b]
a: 4.17

q: Identify the reported pIC50 for the following entry. CCOC(=O)CNC(=O)/C=C/c1ccc(O)c(O)c1 [Compound 28a]
a: 4.15

q: Output pIC50 of COC(=O)CC[C@H](NC(=O)/C=C/c1ccc(O)cc1)C(=O)OC [Compound 25c]
a: 4.20

q: Answer with the recorded pIC50 for the compound listed here: COC(=O)CC[C@H](NC(=O)/C=C/C=C/c1ccccc1)C(=O)OC [Compound 23c]
a: 4.12

q: Identify measured pIC50 corresponding to COC(=O)CC[C@H](NC(=O)/C=C/c1ccc(Br)cc1)C(=O)OC [Compound 14c]
a: 4.12

q: Look up and state reported pIC50 for COC(=O)CC[C@H](NC(=O)/C=C/c1ccc(C(F)(F)F)cc1)C(=O)OC [Compound 13c]
a: 4.10

###

// reported IC50 per item
- systemUnderTest: ovine COX-2 (Ovis aries, UniProt P79208)
- Construct: purchased Cayman (USA)
- Sequence (P79208 17-603): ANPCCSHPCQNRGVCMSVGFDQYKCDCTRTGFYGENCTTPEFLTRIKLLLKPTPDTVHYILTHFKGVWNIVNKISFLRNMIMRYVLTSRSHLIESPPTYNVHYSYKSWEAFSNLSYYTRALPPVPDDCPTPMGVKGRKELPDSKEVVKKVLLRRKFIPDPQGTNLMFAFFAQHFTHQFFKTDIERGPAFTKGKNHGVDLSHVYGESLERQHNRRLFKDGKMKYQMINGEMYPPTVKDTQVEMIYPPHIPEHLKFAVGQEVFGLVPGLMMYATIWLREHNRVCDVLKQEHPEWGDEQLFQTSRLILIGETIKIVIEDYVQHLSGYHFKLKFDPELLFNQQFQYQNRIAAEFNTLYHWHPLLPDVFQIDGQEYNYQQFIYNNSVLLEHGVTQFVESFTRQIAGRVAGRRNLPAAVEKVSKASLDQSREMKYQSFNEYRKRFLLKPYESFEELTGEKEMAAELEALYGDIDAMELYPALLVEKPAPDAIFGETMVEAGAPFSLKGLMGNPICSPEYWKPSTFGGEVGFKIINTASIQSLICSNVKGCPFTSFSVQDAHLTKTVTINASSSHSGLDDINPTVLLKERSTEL
- measurementProtocol: Cyclooxygenase-2 inhibition study
- Type: biochemical
- conditionDescription: read-out: COX-2 inhibition (IC50)
Give just the number in µM; leave the unit off.

Look over these answered cases.
molecule	IC50, µM
COC(=O)CCCNC(=O)/C=C/c1ccc(Cl)cc1 [Compound 16b]	92.5
CCOC(=O)CNC(=O)/C=C/c1cccc(Oc2ccccc2)c1 [Compound 12a]	55
COC(=O)CC[C@H](NC(=O)/C=C/c1cccc2ccccc12)C(=O)OC [Compound 17c]	62

q: Provide one value: measured IC50 of COC(=O)CCCNC(=O)/C=C/C=C/c1ccccc1 [Compound 23b]
a: 55
